Tested system: CDK2/Cyclin E1 (Homo sapiens)
Construct: NV2641
Method notes: NanoBRET cellular target engagement assay, CDK2/Cyclin E1 in HEK-293 cells
Condition label: HEK-293 cells transfected with CDK2-NanoLuc and CCNE1; tracer K10 0.5 μM; 2 hrs
Decision: IC50 beneath 10 nM gives label 1; IC50 meeting or exceeding 10 nM gives label 0.

Query string: Say whether its IC50 is strictly beneath 10 nM. Entry: O[C@H]1CC[C@H](n2ccc3ncc(Nc4cc(OC(F)F)[nH]n4)nc32)CC1 [Example 12]
Result string: label 1

Query string: Say whether its IC50 is strictly beneath 10 nM. Entry: FC(F)Oc1cc(Nc2cnc3ccn(CC4CCNCC4)c3n2)n[nH]1 [Example 7]
Result string: label 0

Query string: Say whether its IC50 is strictly beneath 10 nM. Entry: c1cncc(Cn2ccc3ncc(Nc4cc(C5COC5)[nH]n4)nc32)c1 [Example 16]
Result string: label 0

Query string: Say whether its IC50 is strictly beneath 10 nM. Entry: OC1(Cn2ccc3ncc(Nc4cc(OC(F)F)[nH]n4)nc32)CCOCC1 [Example 14]
Result string: label 0

Query string: Say whether its IC50 is strictly beneath 10 nM. Entry: CN1CCC(Cn2ccc3ncc(Nc4cc(OC(F)F)[nH]n4)nc32)CC1 [Example 8]
Result string: label 0

Query string: Say whether its IC50 is strictly beneath 10 nM. Entry: COc1cc(Nc2cnc3ccn(C[C@H]4CCCN(C)C4)c3n2)n[nH]1 [Example 21]
Result string: label 0

Query string: Say whether its IC50 is strictly beneath 10 nM. Entry: COc1cc(Nc2cnc3ccn(Cc4cccnc4)c3n2)n[nH]1 [Example 18]
Result string: label 0

Query string: Say whether its IC50 is strictly beneath 10 nM. Entry: FC(F)Oc1cc(Nc2cnc3ccn(Cc4cccnn4)c3n2)n[nH]1 [Example 13]
Result string: label 1

Query string: Say whether its IC50 is strictly beneath 10 nM. Entry: FC(F)Oc1cc(Nc2cnc3ccn(C[C@H]4CCCNC4)c3n2)n[nH]1 [Example 9]
Result string: label 1

* * *

Tested system: CDK2/Cyclin E (Homo sapiens, UniProt P24941)
Construct: purchased Eurofins 14-475
Method notes: Enzymatic phosphorylation activity assay (Caliper mobility shift), CDK2/Cyclin E
Type: biochemical
Condition label: read-out: Enzyme CDK2/cyclin E IC50
Metric name: IC50 (nM)
# unit: nM | format: bare number

// returns IC50 for `CC(C)c1cc(Nc2cnc3ccn([C@@H](C)c4cccnc4)c3n2)n[nH]1` with CDK2/Cyclin E (Homo sapiens, UniProt P24941); value = 0.03

// returns IC50 for `CC(C)c1cc(Nc2cnc3ccn(CC4CCOCC4)c3n2)n[nH]1` with CDK2/Cyclin E (Homo sapiens, UniProt P24941); value = 0.44

// returns IC50 for `C[C@@H](c1cccnc1)n1ccc2ncc(Nc3cc(OC(F)F)[nH]n3)nc21` with CDK2/Cyclin E (Homo sapiens, UniProt P24941); value = 0.22

// returns IC50 for `CC(C)c1cc(Nc2cnc3ccn([C@H](C)c4cccnc4)c3n2)n[nH]1` with CDK2/Cyclin E (Homo sapiens, UniProt P24941); value = 0.31

// returns IC50 for `FC(F)Oc1cc(Nc2cnc3ccn(CC4CCOCC4)c3n2)n[nH]1` with CDK2/Cyclin E (Homo sapiens, UniProt P24941); value = 0.71

* * *

Tested system: CDK2/Cyclin E1 (Homo sapiens)
Construct: NV2641
Method notes: NanoBRET cellular target engagement assay, CDK2/Cyclin E1 in HEK-293 cells
Condition label: HEK-293 cells transfected with CDK2-NanoLuc and CCNE1; tracer K10 0.5 μM; 2 hrs
For each entry below, report its IC50 value.
# unit: nM | format: bare number

Notebook: `FC(F)Oc1cc(Nc2cnc3ccn(C[C@@H]4CCCNC4)c3n2)n[nH]1` , IC50 read as 16.9

Notebook: `N#Cc1cc(Nc2cnc3ccn(Cc4cccnc4)c3n2)n[nH]1` , IC50 read as 112

Notebook: `c1cnnc(Cn2ccc3ncc(Nc4cc(C5COC5)[nH]n4)nc32)c1` , IC50 read as 110

Notebook: `COc1cc(Nc2cnc3ccn(Cc4cccnn4)c3n2)n[nH]1` , IC50 read as 6.9

* * *

Tested system: CDK1/Cyclin B (Homo sapiens, UniProt P06493)
Construct: NV2601
Sequence (P06493 whole entry): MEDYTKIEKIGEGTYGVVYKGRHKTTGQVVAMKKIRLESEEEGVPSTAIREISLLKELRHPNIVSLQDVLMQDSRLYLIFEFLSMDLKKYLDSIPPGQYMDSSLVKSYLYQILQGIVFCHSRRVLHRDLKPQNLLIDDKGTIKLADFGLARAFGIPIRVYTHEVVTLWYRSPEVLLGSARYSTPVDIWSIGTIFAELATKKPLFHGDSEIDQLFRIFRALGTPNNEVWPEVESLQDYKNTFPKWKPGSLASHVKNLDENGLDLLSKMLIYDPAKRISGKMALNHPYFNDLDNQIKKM
Sequence (P14635 whole entry partner): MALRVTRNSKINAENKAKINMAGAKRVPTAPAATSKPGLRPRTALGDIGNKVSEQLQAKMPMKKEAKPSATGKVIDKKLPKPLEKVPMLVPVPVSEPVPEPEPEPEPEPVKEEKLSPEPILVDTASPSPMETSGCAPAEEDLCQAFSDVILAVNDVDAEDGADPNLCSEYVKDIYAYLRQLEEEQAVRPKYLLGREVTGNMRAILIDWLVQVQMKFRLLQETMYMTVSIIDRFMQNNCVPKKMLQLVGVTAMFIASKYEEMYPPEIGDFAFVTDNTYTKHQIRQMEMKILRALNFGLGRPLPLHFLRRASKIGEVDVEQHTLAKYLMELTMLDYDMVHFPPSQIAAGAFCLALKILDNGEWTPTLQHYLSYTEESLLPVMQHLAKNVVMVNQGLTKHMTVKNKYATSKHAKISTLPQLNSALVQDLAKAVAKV
Method notes: NanoBRET cellular target engagement assay, CDK1/Cyclin B in HEK-293 cells
Condition label: HEK-293 cells transfected with CDK1-NanoLuc and CCNB1; tracer K10 0.5 μM; 2 hrs
pIC50: −log10 of the molar value.
Label T when pIC50 >= 6; otherwise F.

Query string: Could you please find out whether `N#Cc1cc(Nc2cnc3ccn(Cc4cccnc4)c3n2)n[nH]1` has pIC50 that meets 6 or exceeds it?
Result string: F

Query string: Could you please find out whether `COc1cc(Nc2cnc3ccn(Cc4cccnn4)c3n2)n[nH]1` has pIC50 that meets 6 or exceeds it?
Result string: T

Query string: Could you please find out whether `COc1cc(Nc2cnc3ccn(C[C@H]4CCCN(C)C4)c3n2)n[nH]1` has pIC50 that meets 6 or exceeds it?
Result string: F

Query string: Could you please find out whether `OC1(Cn2ccc3ncc(Nc4cc(OC(F)F)[nH]n4)nc32)CCOCC1` has pIC50 that meets 6 or exceeds it?
Result string: T

Query string: Could you please find out whether c1cncc(Cn2ccc3ncc(Nc4cc([C@@H]5CCOC5)[nH]n4)nc32)c1 (single isomer, unassigned) has pIC50 that meets 6 or exceeds it?
Result string: T

Query string: Could you please find out whether `FC(F)Oc1cc(Nc2cnc3ccn(C[C@H]4CCCNC4)c3n2)n[nH]1` has pIC50 that meets 6 or exceeds it?
Result string: F

Query string: Could you please find out whether `FC(F)Oc1cc(Nc2cnc3ccn(CC4CCNCC4)c3n2)n[nH]1` has pIC50 that meets 6 or exceeds it?
Result string: F

Query string: Could you please find out whether c1cnnc(Cn2ccc3ncc(Nc4cc([C@@H]5CCOC5)[nH]n4)nc32)c1 (single isomer, unassigned) has pIC50 that meets 6 or exceeds it?
Result string: F

Query string: Could you please find out whether `Cc1cc(Nc2cnc3ccn(Cc4cccnn4)c3n2)n[nH]1` has pIC50 that meets 6 or exceeds it?
Result string: F

Query string: Could you please find out whether `CN1CCC[C@H](Cn2ccc3ncc(Nc4cc(OC(F)F)[nH]n4)nc32)C1` has pIC50 that meets 6 or exceeds it?
Result string: F

Query string: Could you please find out whether `O[C@H]1CC[C@H](n2ccc3ncc(Nc4cc(OC(F)F)[nH]n4)nc32)CC1` has pIC50 that meets 6 or exceeds it?
Result string: T

Query string: Could you please find out whether `C[C@@H](CO)Cn1ccc2ncc(Nc3cc(OC(F)F)[nH]n3)nc21` has pIC50 that meets 6 or exceeds it?
Result string: F

Query string: Could you please find out whether `CN1CCC[C@@H](Cn2ccc3ncc(Nc4cc(OC(F)F)[nH]n4)nc32)C1` has pIC50 that meets 6 or exceeds it?
Result string: F

Query string: Could you please find out whether `CN1CCC(Cn2ccc3ncc(Nc4cc(OC(F)F)[nH]n4)nc32)CC1` has pIC50 that meets 6 or exceeds it?
Result string: F

Query string: Could you please find out whether `c1cncc(Cn2ccc3ncc(Nc4cc(C5COC5)[nH]n4)nc32)c1` has pIC50 that meets 6 or exceeds it?
Result string: T

Query string: Could you please find out whether `C[C@@H](C1CCOCC1)n1ccc2ncc(Nc3cc(OC(F)F)[nH]n3)nc21` has pIC50 that meets 6 or exceeds it?
Result string: T

Query string: Could you please find out whether `Cc1cc(Nc2cnc3ccn(Cc4cccnc4)c3n2)n[nH]1` has pIC50 that meets 6 or exceeds it?
Result string: F

Query string: Could you please find out whether `FC(F)Oc1cc(Nc2cnc3ccn(C[C@@H]4CCCNC4)c3n2)n[nH]1` has pIC50 that meets 6 or exceeds it?
Result string: F

* * *

Tested system: CDK2/Cyclin E1 (Homo sapiens)
Construct: NV2641
Method notes: NanoBRET cellular target engagement assay, CDK2/Cyclin E1 in HEK-293 cells
Condition label: HEK-293 cells transfected with CDK2-NanoLuc and CCNE1; tracer K10 0.5 μM; 2 hrs
For each entry below, report its IC50 value.
# unit: nM | format: bare number

Notebook: CN1CCC[C@H](Cn2ccc3ncc(Nc4cc(OC(F)F)[nH]n4)nc32)C1 [Example 10] , IC50 read as 6

Notebook: C[C@@H](CO)Cn1ccc2ncc(Nc3cc(OC(F)F)[nH]n3)nc21 [Example 15] , IC50 read as 8.8

Notebook: c1cnnc(Cn2ccc3ncc(Nc4cc([C@@H]5CCOC5)[nH]n4)nc32)c1 (single isomer, unassigned) [Example 25] , IC50 read as 128

Notebook: c1cncc(Cn2ccc3ncc(Nc4cc([C@@H]5CCOC5)[nH]n4)nc32)c1 (single isomer, unassigned) [Example 17] , IC50 read as 5.8

Notebook: Cc1cc(Nc2cnc3ccn(Cc4cccnn4)c3n2)n[nH]1 [Example 24] , IC50 read as 105

Notebook: C[C@@H](C1CCOCC1)n1ccc2ncc(Nc3cc(OC(F)F)[nH]n3)nc21 [Example 11] , IC50 read as 1.2

Notebook: Cc1cc(Nc2cnc3ccn(Cc4cccnc4)c3n2)n[nH]1 [Example 19] , IC50 read as 35.7

Notebook: CN1CCC[C@@H](Cn2ccc3ncc(Nc4cc(OC(F)F)[nH]n4)nc32)C1 [Example 28] , IC50 read as 112
